Target: UniProtKB P05121
Sequence (P05121 24-402): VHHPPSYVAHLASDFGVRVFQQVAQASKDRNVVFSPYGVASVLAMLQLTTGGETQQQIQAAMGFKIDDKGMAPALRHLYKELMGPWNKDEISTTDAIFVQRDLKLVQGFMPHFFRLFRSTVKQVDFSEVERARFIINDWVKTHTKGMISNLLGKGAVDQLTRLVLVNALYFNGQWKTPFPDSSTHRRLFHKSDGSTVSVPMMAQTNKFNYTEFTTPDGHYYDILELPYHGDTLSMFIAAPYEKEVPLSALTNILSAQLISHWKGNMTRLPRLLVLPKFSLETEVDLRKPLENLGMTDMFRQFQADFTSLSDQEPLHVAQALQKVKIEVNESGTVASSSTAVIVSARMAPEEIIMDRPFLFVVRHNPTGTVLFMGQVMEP
measured-parameter: IC50 (µM)
Quick note: give the figure in µM, leave out the unit.

Query: Looking for the measured IC50 of CC/C(=C/Cn1oc(=O)[nH]c1=O)c1ccc2c(Cc3ccccc3)c(CC)oc2c1 [Compound 1] , can you help?
Result: 9.3
